Tested on: Nrf2
Assay: Evaluation of Nrf2 activation ability (Nrf2d-LacZ / Keap1 HEK293 reporter, Beta-Glo luminescence)
Type: cell-based, human
Conditions: rated A/B/C, Pharmacological Test Example 1
Method: HEK293 cells constantly expressing Nrf2d-LacZ (human Nrf2 degron region fused to LacZ; Hirotsu et al, Genes to Cell, Vol. 16, pp. 406-415 (2011)) and human Keap1 were seeded 7,000 cells/27 μl/well on 384-well plates (Corning 384 Well Flat Clear Bottom White Polystyrene TC-Treated Microplates, Cat. #3707), and cultured overnight at 5% CO2, 37° C. in DMEM medium containing 10% FBS, 100 U/mL penicillin and 100 μg/mL streptomycin. […]
pEC50: −log10 of the molar value.
The compounds listed here are annotated with their pEC50.

Worked examples follow.
[
  {
    "compound": "[O-][s+]1nc(O)cc1-n1ncc2cc(-c3cnc4c(c3)OCC3CCCN43)ccc21 (stereo not drawn)",
    "system-name": "Nrf2",
    "pEC50": "> 6.00"
  },
  {
    "compound": "COc1cc(Br)c2cnn(-c3cc(O)n[s+]3[O-])c2c1 (stereo not drawn)",
    "system-name": "Nrf2",
    "pEC50": "5.30 to 6.00"
  },
  {
    "compound": "[O-][s+]1nc(O)cc1-n1ncc2cc(-c3cccc(C(F)F)n3)ccc21 (stereo not drawn)",
    "system-name": "Nrf2",
    "pEC50": "> 6.00"
  },
  {
    "compound": "O=C(NC1CC1)c1ccc(-c2ccc3c(cnn3-c3cc(O)n[s+]3[O-])c2)cc1 (stereo not drawn)",
    "system-name": "Nrf2",
    "pEC50": "5.30 to 6.00"
  },
  {
    "compound": "[O-][s+]1nc(O)cc1-n1ncc2ccncc21 (stereo not drawn)",
    "system-name": "Nrf2",
    "pEC50": "5.00 to 5.30"
  }
]

In: Could you share what pEC50 was measured for COc1ccc(CN2Cc3cnn(-c4cc(O)n[s+]4[O-])c3C2)cn1 (stereo not drawn) , tested on Nrf2?
Out: 5.00 to 5.30

In: // query: [O-][s+]1nc(O)cc1-n1ncc2c(Cl)cccc21 (stereo not drawn)
Out: 5.30 to 6.00

In: // query: CN1CCCOc2cc(-c3ccc4c(cnn4-c4cc(O)n[s+]4[O-])c3)cnc21 (stereo not drawn)
Out: > 6.00

In: // query: [O-][s+]1nc(O)cc1-n1ncc2cc(-c3ccnc(N4CCOCC4)c3)ccc21 (stereo not drawn)
Out: > 6.00

In: // query: Cc1cncc(-c2ccc3c(cnn3-c3cc(O)n[s+]3[O-])c2)n1 (stereo not drawn)
Out: 5.30 to 6.00

In: // query: [O-][s+]1nc(O)cc1-n1ncc2cc(-c3ccncc3)ccc21 (stereo not drawn)
Out: > 6.00

In: // query: COc1c(Br)ccc2c1cnn2-c1cc(O)n[s+]1[O-] (stereo not drawn)
Out: > 6.00

In: // query: [O-][s+]1nc(O)cc1-n1ncc2ccc(-c3ccc(C4CC4)nc3)cc21 (stereo not drawn)
Out: 5.30 to 6.00

In: // query: Cc1nn(-c2cc(O)n[s+]2[O-])c(C)c1C1=CCC(F)(F)CC1 (stereo not drawn)
Out: 5.00 to 5.30

In: // query: [O-][s+]1nc(O)cc1-n1ncc2cc(OCc3ccccc3)ccc21 (stereo not drawn)
Out: 5.30 to 6.00

In: // query: CN1CCOc2cc(-c3ccc4c(c3)c(C#N)nn4-c3cc(O)n[s+]3[O-])cnc21 (stereo not drawn)
Out: 5.30 to 6.00

In: // query: [O-][s+]1nc(O)cc1-n1ncc2c(-c3cncnc3)cccc21 (stereo not drawn)
Out: 5.00 to 5.30

In: // query: N#Cc1ccc2c(cnn2-c2cc(O)n[s+]2[O-])c1 (stereo not drawn)
Out: 5.30 to 6.00
